- System: rabbits
- assay name: Primary skin irritation test on animals (Draize P.I.I.)
- condition summary: depilated back, 0.5 ml of 1% solution in 1,3-butylene glycol:ethanol 7:3, observed 24 or 72 hours later
Lab note: anything with P.I.I. (Primary Irritation Index) at or over 0.5 counts as Satisfied; the rest go in Not satisfied.

CN(C(=O)C12CC3CC(CC(C3)C1)C2)c1ccc(C(=O)NO)cc1 [Example 21] :: Not satisfied
CC(C)c1ccc(C(=O)Nc2ccc(CC(=O)NO)cc2)cc1 [Example 28] :: Satisfied
Cc1cccc(N(C)C(=O)c2ccc(C(=O)NO)cc2)c1 [Example 47] :: Not satisfied
O=C(NO)c1ccc(C(=O)NC23CC4CC(CC(C4)C2)C3)cc1 [Example 43] :: Not satisfied
CCCc1ccc(NC(=O)c2ccc(C(=O)NO)cc2)cc1 [Example 38] :: Satisfied
CN(C(=O)c1ccccc1)c1ccc(C(=O)NO)cc1 [Example 12] :: Not satisfied
CN(O)C(=O)c1ccc(N(C)C(=O)C23CC4CC(CC(C4)C2)C3)cc1 [Example 22] :: Not satisfied
CCCCc1ccc(C(=O)Nc2ccc(C(=O)NO)cc2)cc1 [Example 7] :: Not satisfied
CCc1ccc(C(=O)N(C)c2ccc(C(=O)NO)cc2)cc1 [Example 15] :: Satisfied
Cc1ccc(C(=O)Nc2ccc(C(=O)NO)cc2)cc1C [Example 9] :: Not satisfied
CCc1ccc(C(=O)Nc2ccc(C(=O)NO)cc2)cc1 [Example 4] :: Not satisfied
Cc1cccc(C(=O)Nc2ccc(C(=O)NO)cc2)c1 [Example 3] :: Not satisfied
Cc1cccc(C(=O)N(C)c2ccc(C(=O)NO)cc2)c1 [Example 14] :: Not satisfied
CCCc1ccc(N(C)C(=O)c2ccc(C(=O)NO)cc2)cc1 [Example 49] :: Not satisfied
CC1=C(/C=C/C(C)=C/C=C/C(C)=C/C(=O)O)C(C)(C)CCC1 [Retinoic acid, retinoic acid, reference compound] :: Satisfied
CCCCc1ccc(C(=O)N(C)c2ccc(C(=O)NO)cc2)cc1 [Example 18] :: Not satisfied
Cc1ccc(C(=O)Nc2ccc(C(=O)NO)cc2)cc1 [Example 2] :: Not satisfied
CC(C)c1ccc(N(C)C(=O)c2ccc(C(=O)NO)cc2)cc1 [Example 50] :: Not satisfied
CCCCc1ccc(NC(=O)c2ccc(C(=O)NO)cc2)cc1 [Example 40] :: Satisfied
CN(C(=O)c1ccc(C(=O)NO)cc1)C12CC3CC(CC(C3)C1)C2 [Example 54] :: Satisfied
Cc1cccc(C(=O)Nc2ccc(CC(=O)NO)cc2)c1 [Example 25] :: Not satisfied
CCc1ccc(N(C)C(=O)c2ccc(C(=O)NO)cc2)cc1 [Example 48] :: Not satisfied
Cc1cccc(NC(=O)c2ccc(C(=O)NO)cc2)c1 [Example 36] :: Not satisfied
CC(C)c1ccc(NC(=O)c2ccc(C(=O)NO)cc2)cc1 [Example 39] :: Not satisfied
Cc1ccc(N(C)C(=O)c2ccc(C(=O)NO)cc2)cc1C [Example 53] :: Not satisfied
CC(C)(C)c1ccc(NC(=O)c2ccc(C(=O)NO)cc2)cc1 [Example 41] :: Not satisfied
Cc1ccc(C(=O)Nc2ccc(CC(=O)NO)cc2)cc1C [Example 31] :: Satisfied
CC(C)(C)c1ccc(C(=O)Nc2ccc(CC(=O)NO)cc2)cc1 [Example 30] :: Not satisfied
CCCc1ccc(C(=O)N(C)c2ccc(C(=O)NO)cc2)cc1 [Example 16] :: Satisfied
